endpoint: melting point

Please review the following examples before continuing.
>>> result("O=C(O)COc1ccc(SCc2ccc(OCc3ccc(OC(F)(F)F)cc3)cc2)c2c1CCC2 [Example 75]")
"140 to 142 °C"
>>> result("O=C(O)COc1ccc(SCc2cccc(OCc3ccc(Cl)c(C(F)(F)F)c3)c2)c2c1CCC2 [Example 80]")
"121 to 122 °C"
>>> result("Cc1cc(/C=C/c2ccc(-c3ccc(C(F)(F)F)cc3)cc2)ccc1OCC(=O)O [Example 24]")
"243 to 245 °C"
>>> result("COc1ccc(CSc2ccc(OCC(=O)O)c3c2CCC3)cc1OCc1ccc(C(F)(F)F)cc1 [Example 78]")
"150 to 151 °C"
>>> result("O=C(O)COc1ccc(SCc2ccc(OCc3ccc(Cl)c(Cl)c3)cc2)c2c1CCC2 [Example 72]")
"168 °C"
>>> result("Cc1cc(SCc2ccc(OCc3ccc(C(F)(F)F)cc3)cc2)c(Cl)cc1OCC(=O)O [Example 61]")
"142 to 143 °C"

Query: Name the recorded melting point of the item O=C(O)COc1ccc(SCc2ccc(OCc3cc(Cl)ccc3Cl)cc2)c2c1CCCO2 [Example 85] in your answer.
Response: 98 to 100 °C

Query: Using known records, supply melting point for O=C(O)COc1ccc(SCc2ccc(-c3ccc(C(F)(F)F)cn3)cc2)c2c1CCC2 [Example 26]
Response: 220 °C (dec.)

Query: Please indicate melting point recorded for Cc1cc(SCc2ccc(OCc3ccc(C(C)(C)C)cc3)cc2)ccc1OCC(=O)O [Example 34]
Response: 135 to 137 °C

Query: State its melting point for this compound: Cc1cc(SCc2ccc(OCc3ccc(C(F)(F)F)cc3)cc2)ccc1OCC(=O)O [Example 15]
Response: 133 °C

Query: Supply melting point value. Item: O=C(O)COc1ccc(SCc2ccc(OCc3ccc(F)c(C(F)(F)F)c3)cc2)c2c1CCC2 [Example 74]
Response: 116 to 117 °C

Query: Return value of melting point for input Cc1cc(SCc2ccc(OCc3ccc(F)cc3)cc2)ccc1OCC(=O)O [Example 57] , no commentary.
Response: 154 to 155 °C

Query: For the compound O=C(O)COc1ccc(SCc2ccc(OCc3ccccc3)cc2)c2c1CCC2 [Example 69] , report melting point.
Response: 145 to 147 °C

Query: Indicate its recorded melting point; the compound in question is O=C(O)COc1ccc(SCc2ccc(OCc3ccc(C(F)(F)F)cc3)cc2)c2c1CCC2 [Example 63]
Response: 145 °C

Query: Specify measured melting point for O=C(O)COc1ccc(SCc2ccc(OCc3ccc(F)cc3C(F)(F)F)cc2)c2c1CCC2 [Example 76] .
Response: 125 to 127 °C

Query: Look up melting point of Cc1cc(SCc2ccc(-c3ccc(C(F)(F)F)cn3)cc2)c2c(c1OCC(=O)O)CCO2 [Example 92] and report it.
Response: 155 to 157 °C

Query: Complete the entry with melting point for O=C(O)COc1ccc(SCc2cc(-c3ccc(Cl)cc3)no2)c2c1CCC2 [Example 98]
Response: 158 to 160 °C

* * *

target: hPPARα (Homo sapiens, UniProt Q07869); test: Transient transfection assay in HepG2 cells, Gal4-hPPARα chimeric receptor, luciferase reporter; type: cell-based; details: Hep G2-hAlpha EC50, 24 hours incubation; read-out: EC50α nM (Group)
Sequence (Q07869 200-468 limits assumed): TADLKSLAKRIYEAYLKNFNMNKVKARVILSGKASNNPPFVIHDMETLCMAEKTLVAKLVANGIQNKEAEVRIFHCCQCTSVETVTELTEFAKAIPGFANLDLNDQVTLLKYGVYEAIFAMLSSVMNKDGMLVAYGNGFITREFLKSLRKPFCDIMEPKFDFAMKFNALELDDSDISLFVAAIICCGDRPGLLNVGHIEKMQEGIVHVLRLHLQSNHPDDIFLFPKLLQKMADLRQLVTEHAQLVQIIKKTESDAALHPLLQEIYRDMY
endpoint: EC50

>>> result("CCCc1cc(SCc2ccc(-c3ccc(C(F)(F)F)cc3)cc2)ccc1OCC(=O)O")
"500 to 1000 nM"
>>> result("O=C(O)COc1ccc(SCc2ccc(OCc3ccc(Cl)c(C(F)(F)F)c3)cc2)c2c1CCC2")
"2000 to 5000 nM"

Query: # return recorded EC50 for entry Cc1cc(SCc2ccc(-c3ccc(C(F)(F)F)cn3)cc2)c2c(c1OCC(=O)O)CCC2
Response: 500 to 1000 nM

Query: Provide EC50 value for the following molecule: O=C(O)COc1ccc(SCc2cccc(OCc3ccc(C(F)(F)F)cc3)c2)c2c1CCC2
Response: > 5000 nM

Query: Respond only with EC50 recorded for O=C(O)COc1ccc(SCc2ccc(OCc3ccc(C(F)(F)F)cc3)cc2)c2c1CCC2
Response: 2000 to 5000 nM

Query: Tell us which EC50 value is on record for Cc1cc(SCc2ccc(OCc3ccc(C(C)(C)C)cc3)cc2)ccc1OCC(=O)O
Response: < 300 nM

Query: Give EC50 for COc1cc(OCC(=O)O)c(C)cc1SCCc1ccc(-c2ccc(C(F)(F)F)cc2)cc1
Response: < 300 nM

Query: // Input: COc1cc(OCC(=O)O)c(C)cc1SCc1cc(-c2ccc(C(F)(F)F)cc2)no1 . Output its EC50 only.
Response: < 300 nM

* * *

target: UniProt:Q07869; test: Transient transfection assay in HepG2 cells, Gal4-hPPARα chimeric receptor, luciferase reporter; format: cell-based; conditions: Hep G2-hAlpha EC50, 24 hours incubation; read-out: EC50α nM (Group)
Known EC50 of a selection of molecules

Example entries and their recorded answers appear below.
>>> result("O=C(O)COc1ccc(SCc2cccc(-c3ccc(C(F)(F)F)cn3)c2)c2c1CCC2 [Example 53]")
"1000 to 2000 nM"
>>> result("COc1cc(OCC(=O)O)c(C)cc1SCc1ccc(-c2ccccc2)cc1 [Example 1]")
"< 300 nM"
>>> result("O=C(O)COc1ccc(SCc2ccccc2OCc2ccc(C(F)(F)F)cc2)c2c1CCC2 [Example 81]")
"> 5000 nM"
>>> result("O=C(O)COc1ccc(SCc2cccc(OCc3ccc(C(F)(F)F)cc3)c2)c2c1CCCO2 [Example 84]")
"> 5000 nM"

Next up:
Query: Using known records, supply EC50 for COc1cc(OCC(=O)O)ccc1SCc1ccc(-c2ccc(C(F)(F)F)cc2)cc1 [Example 21]
Response: < 300 nM

* * *

Target: hPPARβ (Homo sapiens)
Sequence (Q03181 171-441 limits assumed): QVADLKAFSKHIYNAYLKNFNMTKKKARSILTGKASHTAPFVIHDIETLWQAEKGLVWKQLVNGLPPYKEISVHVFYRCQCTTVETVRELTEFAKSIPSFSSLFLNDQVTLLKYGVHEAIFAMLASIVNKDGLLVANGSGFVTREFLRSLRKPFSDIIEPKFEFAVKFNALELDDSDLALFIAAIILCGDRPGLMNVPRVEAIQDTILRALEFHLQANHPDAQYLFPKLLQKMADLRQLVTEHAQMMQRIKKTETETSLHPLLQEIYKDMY
Experiment: Transient transfection assay in HepG2 cells, Gal4-hPPARβ chimeric receptor, luciferase reporter
Type: cell-based
Details: Hep G2-hBeta EC50, 24 hours incubation; read-out: EC50β nM (Group)
Each entry below carries its reported EC50.

>>> result("O=C(O)COc1ccc(SCc2cc(-c3ccc(Cl)cc3)on2)c2c1CCC2")
"500 to 1000 nM"
>>> result("Cc1cc(SCc2ccc(-c3ccc(C(F)(F)F)cn3)cc2)c2c(c1OCC(=O)O)CCCO2")
"2000 to 5000 nM"
>>> result("Cc1cc(SCc2ccc(OCc3ccc(C(F)(F)F)cc3)cc2)c(Cl)cc1OCC(=O)O")
"300 to 500 nM"

Next, consider the following molecule.
Query: Give EC50 for Cc1cc(SCc2ccc(OCc3ccc(F)cc3F)cc2)ccc1OCC(=O)O
Response: > 5000 nM

* * *

target: hPPARα (Homo sapiens); experiment: Transient transfection assay in HepG2 cells, Gal4-hPPARα chimeric receptor, luciferase reporter; format: cell-based; conditions: Hep G2-hAlpha EC50, 24 hours incubation; read-out: EC50α nM (Group)
Reported EC50 values are given for each entry in this list.

Solved cases (3 shown):
>>> result("Cc1cc(SCc2ccc(-c3ccc(C(F)(F)F)cn3)cc2)ccc1OCC(=O)O")
"1000 to 2000 nM"
>>> result("Cc1cc(SCc2ccc(OCc3ccc(Cl)cc3Cl)cc2)ccc1OCC(=O)O")
"1000 to 2000 nM"
>>> result("Cc1cc(SCc2ccc(OCc3ccc(F)cc3)cc2)ccc1OCC(=O)O")
"1000 to 2000 nM"

Query: Enter measured EC50, system hPPARα (Homo sapiens), for the compound shown: COc1cc(OCC(=O)O)c(C)cc1SCc1cccc(-c2cccc(OC(F)(F)F)c2)c1
Response: < 300 nM

Query: Under hPPARα (Homo sapiens), report EC50 for Cc1cc(SCc2ccc(OCc3cc(Cl)ccc3Cl)cc2)ccc1OCC(=O)O
Response: > 5000 nM

Query: Please report the measured EC50 for COc1cc(OCC(=O)O)c(C)cc1SCc1cc(-c2ccc(Cl)cc2)on1 tested on hPPARα (Homo sapiens).
Response: 2000 to 5000 nM

Query: Please report EC50 with hPPARα (Homo sapiens) for item COc1ccc(COc2ccc(CSc3ccc(OCC(=O)O)c(C)c3)cc2)cc1 .
Response: 1000 to 2000 nM

Query: Recall the reported EC50 of O=C(O)COc1ccc(SCc2cccc(-c3ccc(C(F)(F)F)cc3)c2)c2c1CCC2 on hPPARα (Homo sapiens) and write it down.
Response: 2000 to 5000 nM

Query: Specify the recorded EC50 for Cc1cc(SCc2ccc(-c3ccc(C(F)(F)F)cc3)cc2)c2c(c1OCC(=O)O)CCC2 , system: hPPARα (Homo sapiens).
Response: 1000 to 2000 nM

Query: Please report the measured EC50 for COc1cc(OCC(=O)O)c(C)cc1SCc1ccc(OCc2ccc(C(F)(F)F)cc2)cc1 tested on hPPARα (Homo sapiens).
Response: < 300 nM

Query: Quote EC50 with test system hPPARα (Homo sapiens) for Cc1cc(SCc2ccc(-c3ccc(C(F)(F)F)cc3)cc2)ccc1OCC(=O)O
Response: 2000 to 5000 nM

Query: For hPPARα (Homo sapiens), give EC50 of the listed compound: O=C(O)COc1ccc(SCc2ccc(OCc3ccc(Cl)cc3Cl)cc2)c2c1CCC2
Response: > 5000 nM

Numbers sourced from patent US6964983B2.
